Where do these numbers come from? They come from paper PMC6407917.

assayed-system: UniProtKB Q15375
Sequence (Q15375 whole entry): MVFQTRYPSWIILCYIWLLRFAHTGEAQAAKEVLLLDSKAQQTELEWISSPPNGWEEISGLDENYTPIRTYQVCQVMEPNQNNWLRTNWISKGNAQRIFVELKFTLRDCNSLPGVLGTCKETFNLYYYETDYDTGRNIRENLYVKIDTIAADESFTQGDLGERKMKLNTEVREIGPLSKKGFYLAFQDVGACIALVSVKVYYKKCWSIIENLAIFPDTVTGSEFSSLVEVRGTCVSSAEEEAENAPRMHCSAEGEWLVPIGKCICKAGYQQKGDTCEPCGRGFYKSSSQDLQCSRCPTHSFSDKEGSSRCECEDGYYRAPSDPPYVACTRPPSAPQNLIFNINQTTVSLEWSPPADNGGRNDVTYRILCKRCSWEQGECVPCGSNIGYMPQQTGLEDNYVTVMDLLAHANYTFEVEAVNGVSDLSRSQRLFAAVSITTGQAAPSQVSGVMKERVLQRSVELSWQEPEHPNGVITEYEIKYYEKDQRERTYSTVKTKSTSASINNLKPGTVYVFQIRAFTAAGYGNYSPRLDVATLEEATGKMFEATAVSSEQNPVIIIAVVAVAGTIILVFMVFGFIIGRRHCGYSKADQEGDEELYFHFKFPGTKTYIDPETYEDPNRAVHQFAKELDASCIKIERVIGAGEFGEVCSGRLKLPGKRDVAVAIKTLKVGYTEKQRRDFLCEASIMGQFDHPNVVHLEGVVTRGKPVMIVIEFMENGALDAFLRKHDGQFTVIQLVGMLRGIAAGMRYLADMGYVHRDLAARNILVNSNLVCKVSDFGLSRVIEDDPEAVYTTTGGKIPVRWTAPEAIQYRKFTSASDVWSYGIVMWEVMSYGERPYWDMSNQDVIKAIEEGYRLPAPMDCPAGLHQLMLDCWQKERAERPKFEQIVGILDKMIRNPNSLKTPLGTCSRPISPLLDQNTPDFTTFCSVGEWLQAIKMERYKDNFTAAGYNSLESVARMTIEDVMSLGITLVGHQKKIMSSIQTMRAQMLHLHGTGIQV
assay-remarks: biochemical
Parameters: species or system HEK293/K-562/placenta mixed human extract; Kinobeads chemoproteomic competition binding, quantified by TMT LC-MS/MS, dose response up to 20 uM
pIC50: −log10 of the molar value.
value-type: pIC50

Task item: Answer with the recorded pIC50 of COc1ccccc1-c1n[nH]c2nc(N[C@H]3CC[C@H](NS(=O)(=O)CCC(F)(F)F)CC3)nc(OC)c12 only.
Reply: ≤ 4.70

====

assayed-system: PIP4K2A (Homo sapiens, UniProt P48426)
Sequence (P48426 whole entry): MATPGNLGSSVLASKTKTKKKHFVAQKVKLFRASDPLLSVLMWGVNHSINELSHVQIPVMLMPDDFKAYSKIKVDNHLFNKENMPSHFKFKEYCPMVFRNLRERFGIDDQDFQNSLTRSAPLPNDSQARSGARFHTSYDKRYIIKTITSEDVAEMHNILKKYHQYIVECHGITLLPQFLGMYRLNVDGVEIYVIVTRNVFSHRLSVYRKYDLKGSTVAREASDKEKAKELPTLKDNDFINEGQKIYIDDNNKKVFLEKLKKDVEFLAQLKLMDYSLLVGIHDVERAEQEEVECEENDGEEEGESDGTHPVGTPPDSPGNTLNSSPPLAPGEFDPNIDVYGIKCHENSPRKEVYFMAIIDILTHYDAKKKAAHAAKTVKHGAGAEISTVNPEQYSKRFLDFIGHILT
value-type: IC50

Task item: Using the record for COc1nc(N[C@H]2CC[C@H](NS(=O)(=O)CC(C)C)CC2)nc2[nH]nc(N3CCOC[C@H]3C)c12 , state its measured IC50.
Reply: ≥ 20 µM
